Target: T1, Human CD3eg linker (human)
T1 construct: Single-chain construct; also called recombinant human CD3
T1 chain: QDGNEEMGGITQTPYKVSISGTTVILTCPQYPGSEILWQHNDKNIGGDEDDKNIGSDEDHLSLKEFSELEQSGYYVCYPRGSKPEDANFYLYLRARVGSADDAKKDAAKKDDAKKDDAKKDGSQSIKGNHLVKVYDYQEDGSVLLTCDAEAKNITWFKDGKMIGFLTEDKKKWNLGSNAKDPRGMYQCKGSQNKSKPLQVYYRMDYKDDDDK
Test: SPR; fold vs parent H183/L072
observable: fold change of affinity (fold)
All answers are understood in fold, so give the number only.

Qu. Look up fold change of affinity: H183/L072 VL S26N (antibody, name in Kabat numbering, V domains shown) VH: QVQLVESGGGLVQPGRSLRLSCAASGFTFSNAWMHWVRQAPGKGLEWVAQIKDKGNAYAAYYAPSVKGRFTISRDDSKNSIYLQMNSLKTEDTAVYYCHYVHYASASTVLPAFGVDAWGQGTTVTVSS VL: DIVMTQSPLSLPVTPGEPASISCQANQELVHMNRNTYLHWYQQKPGQAPRLLIYKVSNRFPGVPDRFSGSGSGTDFTLKISRVEAEDVGVYYCAQGTSVPFTFGQGTKLEIK
Ans. 0.9

Qu. Which fold change of affinity is listed for H183/L072 VL Q24L (antibody, name in Kabat numbering, V domains shown) VH: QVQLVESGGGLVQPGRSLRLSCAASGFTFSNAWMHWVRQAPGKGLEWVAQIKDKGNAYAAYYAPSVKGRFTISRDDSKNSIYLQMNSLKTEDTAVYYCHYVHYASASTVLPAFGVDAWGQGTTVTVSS VL: DIVMTQSPLSLPVTPGEPASISCLASQELVHMNRNTYLHWYQQKPGQAPRLLIYKVSNRFPGVPDRFSGSGSGTDFTLKISRVEAEDVGVYYCAQGTSVPFTFGQGTKLEIK ?
Ans. 1.2

Qu. Field request: fold change of affinity | item: H183/L072 VL R29T (antibody, name in Kabat numbering, V domains shown) VH: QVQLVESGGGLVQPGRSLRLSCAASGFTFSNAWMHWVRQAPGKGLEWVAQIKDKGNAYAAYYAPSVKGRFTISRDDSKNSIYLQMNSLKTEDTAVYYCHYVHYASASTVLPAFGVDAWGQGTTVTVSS VL: DIVMTQSPLSLPVTPGEPASISCQASQELVHMNTNTYLHWYQQKPGQAPRLLIYKVSNRFPGVPDRFSGSGSGTDFTLKISRVEAEDVGVYYCAQGTSVPFTFGQGTKLEIK
Ans. 0.8

Qu. Value lookup for fold change of affinity; key = H183/L072 VL M27eN (antibody, name in Kabat numbering, V domains shown) VH: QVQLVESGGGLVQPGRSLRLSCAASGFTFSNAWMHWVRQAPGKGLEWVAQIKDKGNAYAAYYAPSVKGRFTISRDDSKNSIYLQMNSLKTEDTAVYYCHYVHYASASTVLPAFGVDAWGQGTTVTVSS VL: DIVMTQSPLSLPVTPGEPASISCQASQELVHNNRNTYLHWYQQKPGQAPRLLIYKVSNRFPGVPDRFSGSGSGTDFTLKISRVEAEDVGVYYCAQGTSVPFTFGQGTKLEIK
Ans. 0.9

Qu. Any idea what its fold change of affinity is? The binder is H183/L072 VL H27dQ (antibody, name in Kabat numbering, V domains shown) VH: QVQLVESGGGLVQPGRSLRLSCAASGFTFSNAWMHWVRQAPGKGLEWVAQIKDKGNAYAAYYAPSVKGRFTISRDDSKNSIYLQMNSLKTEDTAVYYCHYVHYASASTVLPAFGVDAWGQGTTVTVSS VL: DIVMTQSPLSLPVTPGEPASISCQASQELVQMNRNTYLHWYQQKPGQAPRLLIYKVSNRFPGVPDRFSGSGSGTDFTLKISRVEAEDVGVYYCAQGTSVPFTFGQGTKLEIK
Ans. 0
